target: Serine/threonine-protein kinase PAK 2 (Homo sapiens, UniProt Q13177)
Sequence (Q13177 whole entry): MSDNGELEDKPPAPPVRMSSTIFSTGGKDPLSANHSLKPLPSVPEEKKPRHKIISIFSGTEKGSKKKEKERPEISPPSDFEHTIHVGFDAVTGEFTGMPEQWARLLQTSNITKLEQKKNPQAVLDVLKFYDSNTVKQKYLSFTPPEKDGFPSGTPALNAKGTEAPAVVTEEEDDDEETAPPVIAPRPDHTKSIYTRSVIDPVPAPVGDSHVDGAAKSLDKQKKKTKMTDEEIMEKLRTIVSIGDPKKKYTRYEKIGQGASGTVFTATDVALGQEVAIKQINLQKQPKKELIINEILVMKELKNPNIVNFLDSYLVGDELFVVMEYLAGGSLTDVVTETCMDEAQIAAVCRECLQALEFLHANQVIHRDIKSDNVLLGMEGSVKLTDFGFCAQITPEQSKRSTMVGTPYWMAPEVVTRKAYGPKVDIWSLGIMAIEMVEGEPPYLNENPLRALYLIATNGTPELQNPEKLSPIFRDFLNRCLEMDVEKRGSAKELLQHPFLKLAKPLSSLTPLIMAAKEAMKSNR
readout: Kd

# Kd (compound: `CC(C)CN(C(=O)c1cccnc1)c1c2ccccc2c(=O)n2c1[nH]c1ccccc12` ) is ≥ 5 µM

---

target: Cyclin-dependent kinase 16 (Homo sapiens, UniProt Q00536)
Sequence (Q00536 whole entry): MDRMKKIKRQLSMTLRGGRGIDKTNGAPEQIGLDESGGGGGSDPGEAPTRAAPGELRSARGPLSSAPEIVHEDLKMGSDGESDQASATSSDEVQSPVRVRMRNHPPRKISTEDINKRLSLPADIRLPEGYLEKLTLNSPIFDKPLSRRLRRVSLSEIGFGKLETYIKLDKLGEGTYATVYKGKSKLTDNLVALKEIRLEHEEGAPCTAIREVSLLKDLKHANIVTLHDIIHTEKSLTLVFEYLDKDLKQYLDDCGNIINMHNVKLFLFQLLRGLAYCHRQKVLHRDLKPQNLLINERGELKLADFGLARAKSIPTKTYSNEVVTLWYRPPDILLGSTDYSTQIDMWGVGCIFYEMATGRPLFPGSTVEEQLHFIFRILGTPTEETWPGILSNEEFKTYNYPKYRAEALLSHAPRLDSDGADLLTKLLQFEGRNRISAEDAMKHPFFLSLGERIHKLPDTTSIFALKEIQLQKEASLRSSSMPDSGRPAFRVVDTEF
pKd: −log10 of the molar value.
readout: pKd

Item `CC(C)CN(C(=O)c1cccnc1)c1c2ccccc2c(=O)n2c1[nH]c1ccccc12` was tested on Cyclin-dependent kinase 16 (Homo sapiens, UniProt Q00536); the reported pKd is ≤ 5.30

---

target: MAP kinase-activated protein kinase 2 (Homo sapiens); experiment: Binding affinity to human MAPKAPK2 (V48 to D345 residues) expressed in bacterial expression system by KINOMEscan assay
Sequence (P49137 whole entry, the tested form may be a part): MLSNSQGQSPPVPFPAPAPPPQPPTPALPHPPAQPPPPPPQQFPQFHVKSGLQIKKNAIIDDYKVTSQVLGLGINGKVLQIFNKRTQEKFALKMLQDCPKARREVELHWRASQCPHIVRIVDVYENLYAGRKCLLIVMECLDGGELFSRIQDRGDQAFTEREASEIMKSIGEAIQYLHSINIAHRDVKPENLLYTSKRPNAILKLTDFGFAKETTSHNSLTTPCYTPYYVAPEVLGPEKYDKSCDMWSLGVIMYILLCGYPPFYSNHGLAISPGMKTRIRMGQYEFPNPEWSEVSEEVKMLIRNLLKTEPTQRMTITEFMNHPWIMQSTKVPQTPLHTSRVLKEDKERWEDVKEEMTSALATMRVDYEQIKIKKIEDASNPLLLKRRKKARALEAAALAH
readout: Kd

# Kd (molecule: `CC(C)CN(C(=O)c1cccnc1)c1c2ccccc2c(=O)n2c1[nH]c1ccccc12` ) is ≥ 5 µM
